Let's look at some compounds and their measured tissue uptake at 1 h.
- Assay Procedure: Ex vivo biodistribution in PC-3 tumor-bearing mice
- Cond: mouse, spleen, Uptake in spleen, 1 h post-injection

- Compound: "CC(C)C[C@H](NC(=O)[C@H](Cc1cnc[nH]1)N(C)C(=O)CNC(=O)[C@@H](NC(=O)[C@H](C)NC(=O)[C@H](Cc1c[nH]c2ccccc12)NC(=O)[C@H](CCC(N)=O)NC(=O)[C@@H](Cc1ccccc1)NC(=O)CN1CCC(NC(=O)CN2CCN(CC(=O)O)CCN(CC(=O)O)CCN(CC(=O)O)CC2)CC1)C(C)(C)C)C(=O)N1CSC[C@H]1C(N)=O [[^177Lu]Lu-LW01110, metal not drawn]"
  tissue uptake at 1 h / %ID/g: 0.28
- Compound: "CC(C)C[C@@H](CN1CSC[C@H]1C(N)=O)NC(=O)[C@H](Cc1cnc[nH]1)NC(=O)CN(C)C(=O)[C@@H](NC(=O)[C@H](C)NC(=O)[C@H](Cc1c[nH]c2ccccc12)NC(=O)[C@H](CCC(N)=O)NC(=O)[C@@H](Cc1ccccc1)NC(=O)CN1CCC(NC(=O)CN2CCN(CC(=O)O)CCN(CC(=O)O)CCN(CC(=O)O)CC2)CC1)C(C)C [[^177Lu]Lu-TacsBOMB5, metal not drawn]"
  tissue uptake at 1 h / %ID/g: 0.31

* * *

- Assay Procedure: Ex vivo biodistribution in PC-3 tumor-bearing mice
- Cond: mouse, blood, Uptake in blood, 4 h post-injection
Numbered stars: 1 amine (or outer) side, 2 acyl side, 3 side chain; on linkers, the order of the positions; unused ones are H or OH. Square brackets hold non-standard residues; d marks the D form. Peptide text beside a SMILES is read from it. * marks the point of attachment. DOTA = O=C(O)CN1CCN(CC(=O)O)CCN(CC(=O)*)CCN(CC(=O)O)CC1; NMeH = CN[C@@H](Cc1c[nH]cn1)C(=O)O; X1 = O=C(CN1CCC(N[*:1])CC1)[*:2]; Tle = CC(C)(C)[C@H](N)C(=O)O; Thz = O=C(O)[C@@H]1CSCN1
Each entry below lists one item and its recorded tissue uptake at 4 h value.

- Compound: "CC(C)C[C@H](NC(=O)[C@H](Cc1cnc[nH]1)N(C)C(=O)CNC(=O)[C@@H](NC(=O)[C@H](C)NC(=O)[C@H](Cc1c[nH]c2ccccc12)NC(=O)[C@H](Cc1c[nH]cn1)NC(=O)[C@@H](Cc1ccccc1)NC(=O)CN1CCC(NC(=O)CN2CCN(CC(=O)O)CCN(CC(=O)O)CCN(CC(=O)O)CC2)CC1)C(C)(C)C)C(=O)N1CSC[C@H]1C(N)=O [[^177Lu]Lu-LW01142, metal not drawn] ({DOTA}-[X1][dF]HWA[Tle]G[NMeH]L[Thz]-NH2)"
  Unit Label: "%ID/g"
  tissue uptake at 4 h: 0.08
- Compound: "CC(C)C[C@H](NC(=O)[C@H](Cc1cnc[nH]1)N(C)C(=O)CNC(=O)[C@@H](NC(=O)[C@H](C)NC(=O)[C@H](Cc1c[nH]c2ccccc12)NC(=O)[C@H](CCC(N)=O)NC(=O)[C@@H](Cc1ccccc1)NC(=O)CN1CCC(NC(=O)CN2CCN(CC(=O)O)CCN(CC(=O)O)CCN(CC(=O)O)CC2)CC1)C(C)(C)C)C(=O)N1CSC[C@H]1C(N)=O [[^177Lu]Lu-LW01110, metal not drawn]"
  Unit Label: "%ID/g"
  tissue uptake at 4 h: 0.04
